- measured-target: Alopecurus mutant PPO (ALOMY), SEQ ID NO 2 with amino acid substitution
- assay-text: PPO enzyme assay, dose-response (fluorescence), mutated Alopecurus PPO2
- Type: biochemical, Alopecurus myosuroides
- test-settings: listed as S-3102

structure-smiles-string: CCOC(=O)COc1ncccc1Oc1cc(-n2c(=O)cc(C(F)(F)F)n(C)c2=O)c(F)cc1Cl
IC50 (nM): 2.37

* * *

- measured-target: Alopecurus mutant PPO (ALOMY), SEQ ID NO 2 with amino acid substitution
- assay-text: PPO enzyme assay, dose-response (fluorescence), mutated Alopecurus PPO2
- Type: biochemical, Alopecurus myosuroides
- test-settings: listed as S-3103
measurement-kind: IC50 (nM)

structure-smiles-string: CCOC(=O)COc1ncccc1Oc1cc(-n2c(=O)cc(C(F)(F)F)n(C)c2=O)c(F)cc1Cl
measured-target: Alopecurus mutant PPO (ALOMY), SEQ ID NO 2 with amino acid substitution
result-value: 992

* * *

- measured-target: Alopecurus mutant PPO (ALOMY), SEQ ID NO 2 with amino acid substitution
- assay-text: PPO enzyme assay, dose-response (fluorescence), mutated Alopecurus PPO2
- Type: biochemical, Alopecurus myosuroides
- test-settings: listed as S-3101
pIC50: −log10 of the molar value.
measurement-kind: pIC50

compound: CCOC(=O)COc1ncccc1Oc1cc(-n2c(=O)cc(C(F)(F)F)n(C)c2=O)c(F)cc1Cl [S-3100]
measured-target: Alopecurus mutant PPO (ALOMY), SEQ ID NO 2 with amino acid substitution
result-value: 9.26

* * *

- measured-target: UniProt:Q0NZW9
- assay-text: PPO enzyme assay, dose-response (fluorescence), wildtype Amaranthus PPO2
- Type: biochemical
- test-settings: IC50 (M), Table 3a, PPO herbicide sensitive PPO2 WC

compound: C#CCN1C(=O)C(F)(F)Oc2cc(F)c(-n3c(=O)n(C)c(=S)n(C)c3=O)cc21 [BAS 850H]
measured-target: UniProt:Q0NZW9
IC50 / M: 5.17e-10

* * *

- measured-target: Alopecurus mutant PPO (ALOMY), SEQ ID NO 2 with amino acid substitution
- assay-text: PPO enzyme assay, dose-response (fluorescence), mutated Alopecurus PPO2
- Format: biochemical, Alopecurus myosuroides
// reported IC50 for each item listed

structure-smiles-string: CC(C)N(C)S(=O)(=O)NC(=O)c1cc(-n2c(=O)cc(C(F)(F)F)n(C)c2=O)c(F)cc1Cl
IC50: > 10 µM

structure-smiles-string: CCOC(=O)COc1ncccc1Oc1cc(-n2c(=O)cc(C(F)(F)F)n(C)c2=O)c(F)cc1Cl
IC50: 0.95 µM

structure-smiles-string: O=C(O)c1cc(Oc2ccc(C(F)(F)F)cc2Cl)ccc1[N+](=O)[O-]
IC50: ≥ 10 µM

* * *

- measured-target: Amaranthus wildtype PPO (AMARE), PPO herbicide sensitive PPO2 (Amaranthus tuberculatus)
- Sequence (Q0NZW9 entry or part of it): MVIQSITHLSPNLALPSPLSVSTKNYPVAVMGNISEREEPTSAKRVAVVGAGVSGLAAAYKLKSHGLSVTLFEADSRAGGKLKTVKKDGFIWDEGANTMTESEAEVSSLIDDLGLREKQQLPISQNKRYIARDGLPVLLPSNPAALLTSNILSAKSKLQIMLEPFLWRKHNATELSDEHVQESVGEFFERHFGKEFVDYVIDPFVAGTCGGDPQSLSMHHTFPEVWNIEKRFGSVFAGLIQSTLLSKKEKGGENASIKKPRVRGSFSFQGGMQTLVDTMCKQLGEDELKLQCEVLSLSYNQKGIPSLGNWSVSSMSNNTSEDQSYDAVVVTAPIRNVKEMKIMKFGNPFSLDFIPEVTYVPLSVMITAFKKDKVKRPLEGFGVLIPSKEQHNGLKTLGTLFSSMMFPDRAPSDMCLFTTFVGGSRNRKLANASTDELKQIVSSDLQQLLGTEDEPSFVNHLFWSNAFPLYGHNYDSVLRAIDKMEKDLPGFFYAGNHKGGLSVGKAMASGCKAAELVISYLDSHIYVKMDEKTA
- assay-text: PPO enzyme assay, dose-response (fluorescence), wildtype Amaranthus PPO2
- Assay type: biochemical
- test-settings: IC50 (M), Table 3a, PPO herbicide sensitive PPO2 AC
measurement-kind: IC50 (M)

molecule: C#CCN1C(=O)C(F)(F)Oc2cc(F)c(-n3c(=O)n(C)c(=S)n(C)c3=O)cc21 [BAS 850H]
result-value: 5.96e-11

* * *

- measured-target: Alopecurus mutant PPO (ALOMY), SEQ ID NO 2 with amino acid substitution
- assay-text: PPO enzyme assay, dose-response (fluorescence), mutated Alopecurus PPO2
- Format: biochemical, Alopecurus myosuroides
- test-settings: listed as S-3104
pIC50: −log10 of the molar value.

structure-smiles-string: CCOC(=O)COc1ncccc1Oc1cc(-n2c(=O)cc(C(F)(F)F)n(C)c2=O)c(F)cc1Cl
measured-target: Alopecurus mutant PPO (ALOMY), SEQ ID NO 2 with amino acid substitution
pIC50: 7.92

The reported numbers originate from patent US10392630B2.
